target: PAR2 (HT-29 cells, SLIGKV activation) (Homo sapiens, UniProt P55085); construct: host or cells: HT-29 cells; assay: Ca FLIPR TETRA assay, ANTAGONIST mode, stimulation with 8 μM SLIGKV; format: cell-based; conditions: HT-29 cells, stimulation with 8 μM SLIGKV
Each record is given True if its reported IC50 is strictly below 500 nM. Records at or above 500 nM are given False.

molecule	assignedCategory
C[C@H]1CN(C(=O)c2cn3nc(-c4ccc(F)cc4)cc(C4CC4)c3n2)CCN1C(=O)[C@H](O)CC(C)(C)C	True
O=C1CCN(C(=O)c2cn3nc(-c4ccc(F)cc4)cc(C(F)(F)F)c3n2)CC1	False

Query :: Please check: IC50 for CC(C)CC(=O)N1CCN(C(=O)c2cn3nc(-c4ccc(F)cc4)cc(C(C)C)c3n2)C[C@@H]1C , strictly under 500 nM or not?
Result :: True

Query :: Problem: For the molecule Cc1cc(-c2ccc(F)cc2)nn2cc(C(=O)N3CCN(C(=O)[C@H](O)CC(C)(C)C)CC3(C)C)nc12 , is IC50 under 500 nM?
Result :: True

Query :: Determine whether this molecule shows IC50 lower than 500 nM (ties excluded): CC(O)C(=O)N1CCN(C(=O)c2cn3nc(-c4ccc(F)cc4)cc(C(C)C)c3n2)C[C@@H]1C (some centres unmarked)
Result :: True

----------
The entries below come with measured IC50 values attached.
Molecular target: PAR2 (HT-29 cells, SLIGKV activation) (Homo sapiens, UniProt P55085)
Construct: host or cells: HT-29 cells
Sequence (P55085 26-397): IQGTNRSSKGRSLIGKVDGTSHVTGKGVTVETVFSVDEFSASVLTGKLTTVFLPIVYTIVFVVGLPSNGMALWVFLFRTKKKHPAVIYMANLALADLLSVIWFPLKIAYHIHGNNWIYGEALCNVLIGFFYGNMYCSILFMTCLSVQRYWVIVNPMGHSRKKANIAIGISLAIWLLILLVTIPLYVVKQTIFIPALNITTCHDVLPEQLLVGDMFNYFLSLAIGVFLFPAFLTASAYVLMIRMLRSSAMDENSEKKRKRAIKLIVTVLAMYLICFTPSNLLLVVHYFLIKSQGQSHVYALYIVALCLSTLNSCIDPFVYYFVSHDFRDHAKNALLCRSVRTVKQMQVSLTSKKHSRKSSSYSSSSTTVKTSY
Assay: Ca FLIPR TETRA assay, ANTAGONIST mode, stimulation with 8 μM SLIGKV
Type: cell-based
Conditions: HT-29 cells, antagonist mode, stimulation with 8 μM SLIGKV
Please answer in the form of a number followed by its unit of measurement.

Query :: Under PAR2 (HT-29 cells, SLIGKV activation) (Homo sapiens, UniProt P55085): IC50 value of CC(C)N1CCN(C(=O)c2cn3nc(-c4ccc(F)cc4)cc(C(C)(C)C)c3n2)C(C)(C)C1=O ?
Result :: 9.8 nM

----------
target: PAR2 (HT-29 cells, trypsin activation) (Homo sapiens, UniProt P55085); construct: host or cells: HT-29 cells; experiment: Ca FLIPR TETRA assay, ANTAGONIST mode, stimulation with 3.1 U/mL trypsin; assay type: cell-based; details: HT-29 cells, antagonist mode, stimulation with 3.1 U/mL trypsin
Field 'label' (enum: class 1 / class 0). Set to class 1 when IC50 is strictly under 6 nM; else class 0.

Worked set:
molecule	assignedCategory
CC(C)(C)c1cc(-c2ccc(F)cc2)nn2cc(C(=O)N3CCN(C(=O)c4cncnc4)CC3(C)C)nc12	class 1
CC(C)(C)c1cc(-c2ccc(F)cc2F)nn2cc(C(=O)N3CCNC(=O)C3(C)C)nc12	class 0
CC(C)(C)c1cc(-c2ccc(F)cc2)nn2cc(C(=O)N3CCN(C#N)C(=O)C3(C)C)nc12	class 1
Cc1cc(C(=O)N2CCN(C(=O)c3cn4nc(-c5ccc(F)cc5)cc(C(C)(C)C)c4n3)C(C)(C)C2)no1	class 1
CC(C)(C)c1cc(-c2ccc(F)c(Cl)c2)nn2cc(C(=O)N3CCN(C(=O)C4CC(C(=O)O)C4)CC3(C)C)nc12 (stereo not shown)	class 1
CC(C)c1cc(-c2ccc(F)cc2)nn2cc(C(=O)N3CCN(c4nn[nH]n4)C(=O)C3(C)C)nc12	class 0

Now examine the next entry.
Query :: Find out if reported IC50 for CC(C)c1cc(-c2ccc(F)c(Cl)c2)nn2cc(C(=O)N3CCN(C(=O)[C@H]4C[C@@H](C(=O)O)C4)CC3(C)C)nc12 is less than 6 nM
Result :: class 0

----------
Target: PAR2 (HT-29 cells, trypsin activation) (Homo sapiens, UniProt P55085)
Construct: host or cells: HT-29 cells
Experiment: Ca FLIPR TETRA assay, ANTAGONIST mode, stimulation with 3.1 U/mL trypsin
Format: cell-based
Details: HT-29 cells, antagonist mode, stimulation with 3.1 U/mL trypsin
Experimental: Example 60: Protocol for Testing PAR2 Compounds in ANTAGONIST Mode Using the Ca FLIPR^TETRA Assay (384 Well) […] A first read was performed to determine whether the test compounds on their own can activate Ca2+ responses. The cells were incubated with the compounds for 30 min at r. t. and then read in ANTAGONIST mode in the same plate by stimulating with 6.2 uL of a fixed concentration of the activator: final concentrations: 8 μM SLIGKV, 1 U/mL Thrombin, 3.1 U/mL trypsin, or 0.6 μM UTP.
Field 'label' (enum: rule met / rule not met). Set to rule met when IC50 is strictly under 8 nM; else rule not met.

Record excerpt, results attached:
compound	assignedCategory
CC(C)c1cc(-c2ccc(F)cc2)nn2cc(C(=O)N3CCN(C(=O)CC(C)(C)O)CC3(C)C)nc12	rule not met
COC(=O)C1CC(C(=O)N2CCN(C(=O)c3cn4nc(-c5ccc(F)cc5)cc(C(C)(C)C)c4n3)C(C)(C)C2)C1 (centres unmarked) [Compound I-537]	rule met
CC(C)(C)c1cc(-c2ccc(F)cc2)nn2cc(C(=O)N3CCN(C(=O)c4ccncc4)CC3(C)C)nc12	rule met

Query :: Report whether reported IC50 is lower than 8 nM (strictly) for COC(=O)C1(C)CCC(C(=O)N2CCN(C(=O)c3cn4nc(-c5ccc(F)cc5)cc(C(C)(C)C)c4n3)C(C)(C)C2)CC1 (centres unmarked)
Result :: rule met

Query :: Item Cc1ccc(-c2cc(C(C)(C)C)c3nc(C(=O)N4CCN(C(=O)c5ncccn5)CC4(C)C)cn3n2)cc1 : IC50 beneath 8 nM, strictly?
Result :: rule met

Query :: Report whether reported IC50 is lower than 8 nM (strictly) for CC(C)(C)c1cc(-c2ccc(F)cc2)nn2cc(C(=O)N3CCC(O)CC3(C)C)nc12 (centres unmarked)
Result :: rule not met

Query :: Lab note: IC50 threshold 8 nM. Does this compound come in strictly under it? Cc1nnc(C(=O)N2CCN(C(=O)c3cn4nc(-c5ccc(C)c(F)c5)cc(C(C)(C)C)c4n3)C(C)(C)C2)o1
Result :: rule met

Query :: Hello, is IC50 of the following compound strictly smaller than 8 nM? CC(C)N1CCN(C(=O)c2cn3nc(-c4ccc(F)cc4)cc(C(C)(C)C)c3n2)C(C)(C)C1=O
Result :: rule not met

Query :: Say whether its IC50 is strictly beneath 8 nM. Entry: COC(=O)[C@H]1CC[C@@H](C(=O)N2CCN(C(=O)c3cn4nc(-c5ccc(Br)cc5)cc(C(C)(C)C)c4n3)C(C)(C)C2)CC1
Result :: rule met

Query :: Lab note: IC50 threshold 8 nM. Does this compound come in strictly under it? CC1(C)CN(C(=O)c2ncc[nH]2)CCN1C(=O)c1cn2nc(-c3ccc(F)cc3)cc(C(F)(F)F)c2n1
Result :: rule not met

Query :: Given the entry Cc1cc(-c2cc(C(C)(C)C)c3nc(C(=O)N4CCN(C(=O)C5CC(C)(O)C5)CC4(C)C)cn3n2)ccc1F (centres unmarked) , would its reported IC50 be below 8 nM?
Result :: rule met

Query :: Please indicate whether the reported IC50 of Cc1ccc(-c2cc(C(C)(C)C)c3nc(C(=O)N4CCN(C(=O)[C@H]5C[C@@](C)(O)C5)CC4(C)C)cn3n2)cc1F is strictly below 8 nM.
Result :: rule met

----------
Parameter: IC50. Scope: all listed entries.
target: PAR2 (HT-29 cells, SLIGKV activation) (Homo sapiens); construct: host or cells: HT-29 cells; experiment: Ca FLIPR TETRA assay, ANTAGONIST mode, stimulation with 8 μM SLIGKV; assay type: cell-based; conditions: HT-29 cells, stimulation with 8 μM SLIGKV
Respond numerically; units are µM and should not be typed.

The examples below pair each entry with its known result.
molecule	testedOn	resultNumber
CC(C)c1cc(-c2ccc(F)cc2)nn2cc(C(=O)N3CCN(C(=O)C(C)(C)O)[C@@H](C)C3)nc12 [Compound I-112]	PAR2 (HT-29 cells, SLIGKV activation) (Homo sapiens)	2.4
C[C@H]1CN(C(=O)c2cn3nc(-c4ccc(F)cc4)cc(C(F)(F)F)c3n2)CCN1C(=O)Cc1ccccc1 [Compound I-90]	PAR2 (HT-29 cells, SLIGKV activation) (Homo sapiens)	0.015
CC(C)c1cc(C2=CCCCC2)nn2cc(C(=O)N3CCN(C(=O)C4(O)CCC4)CC3(C)C)nc12 [Compound I-40]	PAR2 (HT-29 cells, SLIGKV activation) (Homo sapiens)	0.072
CC(C)c1cc(-c2ccc(F)cc2)nn2cc(C(=O)N3CCN(C(=O)CC4CCCC4)[C@@H](C)C3)nc12 [Compound I-121]	PAR2 (HT-29 cells, SLIGKV activation) (Homo sapiens)	0.004
CCC1(C)C(=O)NCCN1C(=O)c1cn2nc(-c3ccc(F)cc3)cc(C(C)C)c2n1 (stereo not shown) [Compound I-179]	PAR2 (HT-29 cells, SLIGKV activation) (Homo sapiens)	0.003

Query :: What value of IC50 has been reported for the following molecule? O=C(c1cn2nc(-c3ccc(F)cc3)cc(C(F)(F)F)c2n1)N1CCCCC1CO (stereo not shown) [Compound I-47]
Result :: 3.1

Query :: Need IC50 of O=C(c1cn2nc(-c3ccc(F)cc3)cc(C(F)(F)F)c2n1)N1CC[C@@]2(O)CCCC[C@H]2C1 [Compound I-70] , thanks.
Result :: 3.7

Query :: What value of IC50 has been reported for the following molecule? CC(C)C[C@@H](O)C(=O)N1CCN(C(=O)c2cn3nc(-c4ccc(F)cc4)cc(C(C)C)c3n2)C[C@@H]1C [Compound I-105]
Result :: 0.0004

Query :: I'd like to know its IC50. The molecule in question is C[C@H]1CN(C(=O)c2cn3nc(-c4ccc(F)cc4)cc(C(F)(F)F)c3n2)CCN1C(=O)C1CCCCC1 [Compound I-86]
Result :: 0.078

Query :: Entry under review: CCc1cc(-c2ccc(F)cc2)nn2cc(C(=O)N3CCN(C(=O)[C@H](O)C(C)C)CC3(C)C)nc12 [Compound I-166] . Reported IC50?
Result :: 0.016

Query :: Item under review: C=CC(=O)N1CCN(C(=O)c2cn3nc(-c4ccc(F)cc4)cc(C(C)C)c3n2)C[C@@H]1C [Compound I-17] . Reported IC50?
Result :: 0.041
